# target desc: purified Human plasma Kallikrein (Homo sapiens (Human), UniProt P03952)
# Sequence (P03952 391-638): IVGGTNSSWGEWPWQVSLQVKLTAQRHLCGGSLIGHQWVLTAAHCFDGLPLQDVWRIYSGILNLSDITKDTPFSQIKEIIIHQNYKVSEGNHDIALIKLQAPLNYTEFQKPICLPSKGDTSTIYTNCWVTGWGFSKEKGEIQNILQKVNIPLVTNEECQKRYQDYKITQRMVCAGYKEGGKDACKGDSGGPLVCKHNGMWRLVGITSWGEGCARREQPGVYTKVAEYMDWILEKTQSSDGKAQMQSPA
# Sequence (P03952 20-390 partner): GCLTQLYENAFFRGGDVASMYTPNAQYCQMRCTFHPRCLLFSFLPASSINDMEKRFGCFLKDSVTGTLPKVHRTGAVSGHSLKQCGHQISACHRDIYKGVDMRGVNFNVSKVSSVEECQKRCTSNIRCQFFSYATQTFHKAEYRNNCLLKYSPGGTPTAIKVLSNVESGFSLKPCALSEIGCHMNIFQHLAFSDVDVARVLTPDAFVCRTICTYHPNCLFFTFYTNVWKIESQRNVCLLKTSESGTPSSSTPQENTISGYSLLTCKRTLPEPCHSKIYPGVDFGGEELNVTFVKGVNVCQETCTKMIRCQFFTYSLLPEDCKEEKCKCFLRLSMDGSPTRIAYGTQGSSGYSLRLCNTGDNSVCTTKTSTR
# assay explanation: Kallikrein Assay
# Type: biochemical
# details: purified Human plasma Kallikrein 0.5 nM; substrate Acetyl-K-P-R-AFC; 50 mM HEPES pH 7.4; Ki from IC50 by Cheng Prusoff
measure name: pKi
Scale for pKi: -log10 of concentration given in mol/L; no unit attached.

Would you mind telling me what pKi value was observed for COC(=O)Nc1ccc2c(c1)NC(=O)CCCC[C@H](c1ccc(-c3cc(Cl)ccc3-n3cc(C(F)(F)F)nn3)c[n+]1[O-])c1cccc-2c1 ?
9.09

State the recorded pKi for this entry: O=C1CCCCC(c2ccc(-c3cc(Cl)ccc3-n3cc(C(F)(F)F)nn3)c[n+]2[O-])c2cccc(c2)-c2c(cnn2C(F)F)N1 (stereo not drawn)
8.24

Can you look up the measured pKi of COC(=O)Nc1ccc2c(c1)NC(=O)C(C)CCCC(c1ccc(-c3c(F)ccc(Cl)c3F)cn1)c1cc-2ccn1 (single isomer, unassigned) [Example 95-d] for me?
7.97

For the compound shown here, O=C1CCCC[C@H](c2ccc(-c3c(F)ccc(Cl)c3F)c[n+]2[O-])c2cccc(c2)-c2ccc(Nc3ncccn3)cc2N1 , give the reported pKi.
8.75

Can you share its pKi? I mean this compound: COC(=O)Nc1ccc2c(c1)NC(=O)CCCC[C@H](c1ccc(-c3c(OC(F)F)ccc(F)c3F)c[n+]1[O-])c1nc-2c(C)[nH]1 (single isomer, unassigned)
9.18

Need pKi, item COC(=O)Nc1ccc2c(c1)NC(=O)CCCCC(c1ccc(-c3cc(Cl)ccc3-n3cc(C(F)F)nn3)c[n+]1[O-])c1cccc-2c1 (single isomer, unassigned)
9.09

What value of pKi has been reported for the following compound? Cc1[nH]c2nc1-c1ccc(N)cc1NC(=O)CCCC[C@@H]2c1ccc(-c2c(F)ccc(Cl)c2F)c[n+]1[O-] (single isomer, unassigned)
9.13

Return reported pKi; argument: COC(=O)Nc1ccc2c(c1)NC(=O)CCCC[C@H](c1ccc(-c3cc(Cl)ccc3OC(F)(F)F)c[n+]1[O-])c1cccc-2c1 (single isomer, unassigned)
8.17

Requested field: pKi. Item: COC(=O)Nc1ccc2c(c1)NC(=O)CCCC[C@H](c1ccc(-c3ccccc3C(F)(F)F)c[n+]1[O-])c1nc-2c(C)[nH]1 (single isomer, unassigned)
8.41

* * *

# target desc: purified Human plasma Kallikrein (Homo sapiens (Human), UniProt P03952)
# assay explanation: Kallikrein Assay
# Format: biochemical
# details: purified Human plasma Kallikrein 0.5 nM; substrate Acetyl-K-P-R-AFC; 50 mM HEPES pH 7.4; Ki from IC50 by Cheng Prusoff
Would you mind telling me the reported Ki of each entry?
Please format your answer as a value with the unit trailing.

Enter reported Ki observed with purified Human plasma Kallikrein (Homo sapiens (Human), UniProt P03952) for O=C1CCCCC(c2ccc(-c3cc(Cl)ccc3-n3cnnn3)c[n+]2[O-])c2nc(c[nH]2)-c2cc(F)ccc2N1 (single isomer, unassigned) [Example 11-a]
2.12 nM

Provide value of Ki for this record tested with purified Human plasma Kallikrein (Homo sapiens (Human), UniProt P03952): COC(=O)Nc1ccc2c(c1)NC(=O)CCCCC(c1ccc(-c3c(F)ccc(Cl)c3F)c[n+]1[O-])c1cc[n+]([O-])c-2c1 (centres unmarked) [Example 94]
11.3 nM

# returns recorded Ki (system: purified Human plasma Kallikrein (Homo sapiens (Human), UniProt P03952)) for COC(=O)Nc1ccc2c(c1)NC(=O)CCCCC(c1ccc(-c3cc(Cl)ccc3OC(F)F)c[n+]1[O-])c1nc-2c[nH]1 (single isomer, unassigned) [Example 102-a]
0.43 nM

Value wanted: Ki (purified Human plasma Kallikrein (Homo sapiens (Human), UniProt P03952)) of entry COC(=O)Nc1ccc2c(c1)NC(=O)CCCC[C@H](c1ccc(-c3c(F)cccc3-n3cc(C(F)(F)F)cn3)c[n+]1[O-])c1nc-2c(C)[nH]1 (single isomer, unassigned) [Example 137]
418 nM

What value of Ki on purified Human plasma Kallikrein (Homo sapiens (Human), UniProt P03952) does COC(=O)Nc1ccc2c(c1)NC(=O)C[C@H]1C[C@@H]1C[C@H](c1ccc(-c3c(F)ccc(Cl)c3F)c[n+]1[O-])c1cccc-2c1 (single isomer, unassigned) [Example 66] have?
10.2 nM

Tell me reported Ki for C[C@H]1CCC[C@H](c2ccc(-c3cc(Cl)ccc3-n3cnnn3)c[n+]2[O-])c2cccc(c2)-c2cc(F)ccc2NC1=O [Example 3-b] , tested with purified Human plasma Kallikrein (Homo sapiens (Human), UniProt P03952).
10.6 nM

Param readout= Ki; system= purified Human plasma Kallikrein (Homo sapiens (Human), UniProt P03952); entry= CCc1[nH]c2nc1-c1ccc(NC(=O)OC)cc1NC(=O)C(C)CCC[C@@H]2c1ccc(-c2c(F)cccc2F)c[n+]1[O-] (single isomer, unassigned) [Example 144] ; returns value.
1.35 nM

API: value(readout=Ki, system=purified Human plasma Kallikrein (Homo sapiens (Human), UniProt P03952)) for record O=C1CCCCC(c2ccc(-c3c(F)ccc(Cl)c3F)c[n+]2[O-])c2nc(c[nH]2)-c2cc(F)ccc2N1 (single isomer, unassigned) [Example 104-a]
26.3 nM

Record lookup: for purified Human plasma Kallikrein (Homo sapiens (Human), UniProt P03952), what Ki belongs to COC(=O)Nc1ccc2c(c1)NC(=O)CCCCC(c1ccc(-c3c(F)cccc3OC(F)F)c[n+]1[O-])c1nc-2c(C2CC2)[nH]1 (single isomer, unassigned) [Example 113-a] ?
1.87 nM

Given the entry COC(=O)Nc1ccc2c(c1)NC(=O)C(C)(C)CCC[C@H](c1ccc(-c3c(F)cccc3OC(F)F)c[n+]1[O-])c1nc-2c(C)[nH]1 (single isomer, unassigned) [Example 147] , what Ki was observed with purified Human plasma Kallikrein (Homo sapiens (Human), UniProt P03952)?
3.08 nM

Write down the reported Ki of COC(=O)Nc1ccc2c(c1)NC(=O)CCCCC(c1ccc(-c3cc(Cl)ccc3-n3cnnn3)c[n+]1[O-])c1nc-2c[nH]1 (single isomer, unassigned) [Example 98-a] , test system: purified Human plasma Kallikrein (Homo sapiens (Human), UniProt P03952).
0.49 nM

* * *

# target desc: purified Human plasma Kallikrein (Homo sapiens (Human))
# assay explanation: Kallikrein Assay
# Assay type: biochemical
# details: purified Human plasma Kallikrein 0.5 nM; substrate Acetyl-K-P-R-AFC; 50 mM HEPES pH 7.4; Ki from IC50 by Cheng Prusoff
Would you kindly list pKi for each of these compounds?
Conceptually, pKi converts a concentration in mol/L into minus its log10.

Request the reported pKi associated with O=C1CCCCC(c2ccc(-c3cc(Cl)cc(F)c3-n3cnnn3)c[n+]2[O-])c2cccc(c2)-c2cc(F)ccc2N1 (single isomer, unassigned) [Example 7-a]
6.62

Dear colleague, I am looking for the recorded pKi of the following compound: COC(=O)Nc1ccc2c(c1)NC(=O)CC1CC1CC(c1ccc(-c3c(F)ccc(Cl)c3F)c[n+]1[O-])c1nc-2c[nH]1 (racemic) [Example 153]
7.84

# pKi lookup, item O=C(C1CCCCC(c2ccc(-c3cc(Cl)ccc3-n3cnnn3)c[n+]2[O-])c2cccc(c2)-c2cc(F)ccc2N1)N1CCCC1 (single isomer, unassigned) [Example 79-b]
6.92

* * *

measure name: Ki (pM)
Write it as a number; the unit pM goes unstated.

Please state recorded Ki (tested on purified human Factor XIa (Homo sapiens (Human))) of COC(=O)Nc1ccc2c(c1)NC(=O)C(C)CCCC(c1ccc(-c3c(F)ccc(Cl)c3F)c[n+]1[O-])c1ccc(F)c-2c1 (single isomer, unassigned) [Example 86-b]
Sequence (P03951 388-625): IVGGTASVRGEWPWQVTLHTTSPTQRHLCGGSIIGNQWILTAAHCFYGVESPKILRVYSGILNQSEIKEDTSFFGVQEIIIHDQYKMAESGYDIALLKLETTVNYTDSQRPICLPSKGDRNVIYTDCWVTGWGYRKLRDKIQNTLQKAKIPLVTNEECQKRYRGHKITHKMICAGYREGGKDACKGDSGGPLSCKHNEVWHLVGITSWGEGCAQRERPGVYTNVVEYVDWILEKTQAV
Sequence (P03951 19-387 partner): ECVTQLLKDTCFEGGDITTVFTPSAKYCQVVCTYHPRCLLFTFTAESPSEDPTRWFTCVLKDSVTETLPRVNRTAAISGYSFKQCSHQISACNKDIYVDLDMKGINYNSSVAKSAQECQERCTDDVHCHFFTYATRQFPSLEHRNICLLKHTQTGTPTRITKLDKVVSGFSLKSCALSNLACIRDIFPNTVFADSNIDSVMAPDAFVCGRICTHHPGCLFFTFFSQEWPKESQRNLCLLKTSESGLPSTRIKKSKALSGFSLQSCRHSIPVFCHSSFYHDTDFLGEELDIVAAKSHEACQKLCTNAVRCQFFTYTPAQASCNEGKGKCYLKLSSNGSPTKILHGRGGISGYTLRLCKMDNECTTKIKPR
782000

Fill in the recorded Ki for this compound, with purified human Factor XIa (Homo sapiens (Human)) as test system: COC(=O)Nc1ccc2c(c1)NC(=O)CCCC[C@H](c1ccc(-c3cc(F)ccc3OC(F)(F)F)c[n+]1[O-])c1nc-2c(C)[nH]1 (single isomer, unassigned)
220

Notebook entry, purified human Factor XIa (Homo sapiens (Human)) assay: Ki of COC(=O)Nc1ccc2c(c1)NC(=O)CCCCC(c1cc(OC)c(-c3c(F)ccc(Cl)c3F)c[n+]1[O-])c1cccc-2c1 (single isomer, unassigned) = ?
4100

Given the entry CC(C)(C)OCCOC(=O)Nc1ccc2c(c1)NC(=O)CCCC[C@H](c1ccc(-c3c(F)ccc(Cl)c3F)c[n+]1[O-])c1cccc-2c1 , what Ki was observed with purified human Factor XIa (Homo sapiens (Human))?
240

Record O=C1CCCC[C@H](c2ccc(-c3c(F)ccc(Cl)c3F)c[n+]2[O-])c2cccc(c2)-c2ccc(NC(=O)OCCO)cc2N1 : what is its Ki with purified human Factor XIa (Homo sapiens (Human))?
240

Form entry - test system: purified human Factor XIa (Homo sapiens (Human)); read-out: Ki; compound: COC(=O)Nc1ccc2c(c1)NC(=O)C(C)CCCC(c1ccc(-c3c(F)ccc(Cl)c3F)c[n+]1[O-])c1cccc-2c1 (single isomer, unassigned) [Example 50-a]
530

Lookup: Ki / purified human Factor XIa (Homo sapiens (Human)) / COC(=O)Nc1ccc2c(c1)NC(=O)CCCCC(c1ccc(-c3c(OC(F)F)ccc(Cl)c3F)c[n+]1[O-])c1nc-2c[nH]1 (single isomer, unassigned)
330

What measured Ki is associated with COC(=O)Nc1ccc2c(c1)NC(=O)CCCCC(c1ccc(-c3c(F)cccc3OC(F)F)c[n+]1[O-])c1nc-2c[nH]1 (single isomer, unassigned) on purified human Factor XIa (Homo sapiens (Human))?
340

Reported Ki for purified human Factor XIa (Homo sapiens (Human)), given C[C@@H]1CCC[C@@H](c2ccc(-c3cc(Cl)ccc3-n3cnnn3)c[n+]2[O-])c2cccc(c2)-c2cc(F)ccc2NC1=O ?
27700

Form field: Ki recorded for COC(=O)Nc1ccc2c(c1)NC(=O)CCCCC(c1ccc(-c3c(-n4cc(C(F)(F)F)cn4)ccc(Cl)c3F)c[n+]1[O-])c1nc-2c[nH]1 (stereo not drawn) with purified human Factor XIa (Homo sapiens (Human)) (enter value)
208000

Recorded Ki for O=C1CCCCC(c2ccc(-c3cc(Cl)ccc3-n3cc(C(F)F)nn3)c[n+]2[O-])c2nc(c[nH]2)-c2cc(F)ccc2N1 (single isomer, unassigned) with purified human Factor XIa (Homo sapiens (Human)), please?
560

Values from patent US10214512B2
